EXPERIMENTAL TARGET: purified human MAP4K4 kinase domain (Homo sapiens)
Construct: purified human MAP4K4 kinase domain
EXPERIMENTAL PROTOCOL: MAP4K4 Inhibition Assay Protocol No. 2 (Z'-LYTE FRET)
Assay type: biochemical
SETTINGS: Assay 2; 1 nM enzyme, 10 uM ATP, 60 min
PROPERTY LABEL: IC50 (µM)

For orientation, consider the following solved cases.
* CCOC(=O)c1cnc(N)c2nc(-c3cccc(C#N)c3)ccc12 | 0.00145
* CNC(=O)N1CC(NC(=O)c2cnc(N)c3nc(-c4cccc(F)c4)ccc23)C1 | 0.0016
* CC(=O)NC1CN(C(=O)c2cnc(N)c3nc(-c4cccc(F)c4)ccc23)C1 | 0.0198
* Nc1ncc(C(=O)NC2CN(C(=O)C3COC3)C2)c2ccc(-c3cccc(F)c3)nc12 | 0.0195

a: Nc1ncc(C(=O)NC2CCC2)c2ccc(-c3cccc(F)c3)nc12
b: CCOC(=O)c1cnc(N)c2nc(-c3ccc(Cl)cc3)ccc12
c: CC(O)C(=O)N1CC(NC(=O)c2cnc(N)c3nc(-c4cccc(F)c4)ccc23)C1 (stereo not drawn)
d: CCN1CC(NC(=O)c2cnc(N)c3cc(-c4cccc(F)c4)ccc23)C1
e: Nc1ncc(-c2cn(CCN3CCOCC3)cn2)c2ccc(-c3cccc(F)c3)nc12
Arrange these compounds by their IC50, starting with the largest number. Sort and list the labels as requested.
d, b, c, e, a

====

EXPERIMENTAL TARGET: purified human MAP4K4 kinase domain (Homo sapiens, UniProt O95819)
Construct: purified human MAP4K4 kinase domain
Sequence (O95819 25-289 limits assumed): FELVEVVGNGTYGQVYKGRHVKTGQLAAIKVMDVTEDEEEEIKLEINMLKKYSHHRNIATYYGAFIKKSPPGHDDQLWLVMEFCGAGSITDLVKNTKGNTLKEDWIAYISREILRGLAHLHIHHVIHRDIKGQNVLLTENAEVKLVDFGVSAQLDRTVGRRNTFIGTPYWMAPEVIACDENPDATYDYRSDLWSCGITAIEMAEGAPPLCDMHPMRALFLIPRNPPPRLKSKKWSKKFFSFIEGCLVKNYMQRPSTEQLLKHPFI
EXPERIMENTAL PROTOCOL: MAP4K4 Inhibition Assay Protocol No. 1 (Caliper LabChip, moesin-derived peptide phosphorylation)
Format: biochemical
SETTINGS: Assay 1; 1 nM enzyme, 10 uM ATP, 45 min
PROPERTY LABEL: IC50 (µM)

Check out these entries, answers already filled in.
- Nc1ncc(C(=O)Nc2ccncc2)c2ccc(-c3cccc(F)c3)cc12: 0.0224
- NC(=O)c1nc(CNC(=O)c2cnc(N)c3cc(-c4cccc(F)c4)ccc23)no1: 0.0368

1: Nc1ncc(C(=O)NC2CCOCC2)c2ccc(-c3cccc(F)c3)cc12
2: NC(=O)C1CCCN(C(=O)c2cnc(N)c3cc(-c4cccc(F)c4)ccc23)C1 (centres unmarked)
3: COc1ccc(NC(=O)c2cnc(N)c3cc(-c4cccc(F)c4)ccc23)cc1
rank_up(items): orders items by reported IC50 in ascending numerical order. The labels, placed in the requested order, form the answer.
3, 1, 2
(3: 0.0148 µM, 1: 0.12 µM, 2: 2 µM)

====

EXPERIMENTAL TARGET: purified human MAP4K4 kinase domain (Homo sapiens, UniProt O95819)
Construct: purified human MAP4K4 kinase domain
EXPERIMENTAL PROTOCOL: MAP4K4 Inhibition Assay Protocol No. 2 (Z'-LYTE FRET)
Assay type: biochemical
SETTINGS: Assay 2; 1 nM enzyme, 10 uM ATP, 60 min
PROPERTY LABEL: IC50 (µM)

Some molecules with recorded IC50:
* Nc1ncc(C(=O)NC2CN(CC(F)(F)F)C2)c2ccc(-c3cccc(F)c3)nc12 [Example 22] | 0.0244
* Cn1ncnc1-c1cnc(N)c2cc(-c3cccc(F)c3)ccc12 [Example 12] | 0.218
* CCOC(=O)c1cnc(N)c2nc(-c3cc(F)cc(F)c3)ccc12 [Example 145] | 0.00184

1: CCC(=O)NC1CN(C(=O)c2cnc(N)c3nc(-c4cccc(F)c4)ccc23)C1 [Example 29]
2: Nc1ncc(-c2ncco2)c2ccc(-c3cccc(F)c3)cc12 [Example 11]
I would appreciate it if you could say which entry, 1 or 2 , has the lower IC50 value. Respond using the label that marks the chosen record.
2
(2: 0.00873 µM, 1: 0.0608 µM)
